Target: fusion protein PRV
Sequence (chain, as listed by the source): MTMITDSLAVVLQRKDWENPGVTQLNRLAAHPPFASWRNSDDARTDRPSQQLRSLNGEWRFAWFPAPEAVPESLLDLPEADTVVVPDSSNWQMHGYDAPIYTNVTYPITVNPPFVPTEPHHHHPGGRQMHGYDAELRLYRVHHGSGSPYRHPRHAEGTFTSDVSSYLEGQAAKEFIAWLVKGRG
measurement-kind: relative cleavage efficiency

So, OmpT protease variant OmpT D97A (protein) STETLSFTPDNINADISLGTLSGKTKERVYLAEEGGRKVSQLDWKFNNAAIIKGAINWDLMPQISIGAAGWTTLGSRGGNMVDQDWMDSSNPGTWTAESRHPDTQLNYANEFDLNIKGWLLNEPNYRLGLMAGYQESRYSFTARGGSYIYSSEEGFRDDIGSFPNGERAIGYKQRFKMPYIGLTGSYRYEDFELGGTFKYSGWVESSDNDEHYDPGKRITYRSKVKDQNYYSVAVNAGYYVTPNAKVYVEGAWNRVTNKKGNTSLYDHNNNTSDYSKNGAGIENYNFITTAGLKYTF ? Its relative cleavage efficiency was < 3%
